Recorded log10 Koc (L/kg) values for a group of molecules are listed next.
parameter: log10 Koc (L/kg)

[
  {
    "molecule": "COP(=O)(OC)OC(=CCl)c1cc(Cl)c(Cl)cc1Cl",
    "parameter": "log10 Koc (L/kg)",
    "observed": 3.01
  },
  {
    "molecule": "Clc1nc(Cl)nc(Nc2ccccc2Cl)n1",
    "parameter": "log10 Koc (L/kg)",
    "observed": 3
  },
  {
    "molecule": "CCSc1nc(NC(C)C)nc(NC(C)C)n1",
    "parameter": "log10 Koc (L/kg)",
    "observed": 3.07
  },
  {
    "molecule": "CCCCOCCOC(=O)C(C)Oc1ccc(Cl)cc1Cl (centres undefined)",
    "parameter": "log10 Koc (L/kg)",
    "observed": 3
  }
]

---

# note: exactly 200 °C is not below, so it is Not fulfilled; use Fulfilled for melting point strictly under it

[
  {
    "molecule": "Fc1ccc(-c2ccc(F)cc2)cc1",
    "assigned-category": "Fulfilled"
  },
  {
    "molecule": "O=c1c(O)c(-c2ccccc2)oc2cc(O)cc(O)c12",
    "assigned-category": "Not fulfilled"
  },
  {
    "molecule": "O[C@H]1[C@H](O)[C@H](O)OC[C@H]1O",
    "assigned-category": "Fulfilled"
  },
  {
    "molecule": "CCC(C)c1ccccc1 (configuration not stated)",
    "assigned-category": "Fulfilled"
  },
  {
    "molecule": "C=CCCCCC(=O)O",
    "assigned-category": "Fulfilled"
  },
  {
    "molecule": "Clc1ccc(OCOc2ccc(Cl)cc2)cc1",
    "assigned-category": "Fulfilled"
  },
  {
    "molecule": "Clc1cc(Cl)c2c(oc3ccc(Cl)c(Cl)c32)c1Cl",
    "assigned-category": "Not fulfilled"
  },
  {
    "molecule": "CCn1cc(C(=O)O)c(=O)c2cc(F)c(N3CCNCC3)nc21",
    "assigned-category": "Not fulfilled"
  },
  {
    "molecule": "O=C(O)c1ccc(O)cc1",
    "assigned-category": "Not fulfilled"
  },
  {
    "molecule": "O=C(C(F)(F)F)C(F)(F)Cl",
    "assigned-category": "Fulfilled"
  },
  {
    "molecule": "CC=CC(C)C(C)C=CC (configuration not stated)",
    "assigned-category": "Fulfilled"
  },
  {
    "molecule": "O=C(O)CSCc1ccccc1",
    "assigned-category": "Fulfilled"
  },
  {
    "molecule": "O=CCC=O",
    "assigned-category": "Fulfilled"
  },
  {
    "molecule": "C[C@]12CC[C@H]3[C@@H](CCC4=C(Cl)C(=O)CC[C@@]43C)[C@@H]1CC[C@@H]2O",
    "assigned-category": "Fulfilled"
  },
  {
    "molecule": "Cc1ccnc(N)c1",
    "assigned-category": "Fulfilled"
  },
  {
    "molecule": "CC1=C(CCO)SC2=Nc3nc(C)ncc3CN21",
    "assigned-category": "Not fulfilled"
  },
  {
    "molecule": "C=CCc1ccc2c(c1)OCO2",
    "assigned-category": "Fulfilled"
  },
  {
    "molecule": "CCOP(=O)(N=C1SCCS1)OCC",
    "assigned-category": "Fulfilled"
  },
  {
    "molecule": "Nc1c(Cl)c(Cl)cc(Cl)c1Cl",
    "assigned-category": "Fulfilled"
  },
  {
    "molecule": "CC(c1ccccc1)C(C)(C)O (configuration not stated)",
    "assigned-category": "Fulfilled"
  },
  {
    "molecule": "Cc1ccc2c(c1[N+](=O)[O-])C(=O)c1ccccc1C2=O",
    "assigned-category": "Not fulfilled"
  },
  {
    "molecule": "O=C1CCC(=O)N1c1ccccc1",
    "assigned-category": "Fulfilled"
  },
  {
    "molecule": "CC[C@@](C)(O)C(=O)O",
    "assigned-category": "Fulfilled"
  },
  {
    "molecule": "COc1ccc2[nH]c(S(=O)Cc3ncc(C)c(OC)c3C)nc2c1 (configuration not stated)",
    "assigned-category": "Fulfilled"
  },
  {
    "molecule": "CC1(C)C(=O)NC(=O)N1CO",
    "assigned-category": "Fulfilled"
  },
  {
    "molecule": "c1ccc2c(c1)ccc1cc3c(ccc4ccccc43)cc12",
    "assigned-category": "Not fulfilled"
  }
]
